Test system: HCT-15 colon
Assay: NCI tumour cell line growth inhibition, 48 h; in the data active = GI50 below about 0.43 µM; inactive = the rest
Pick one: active, inactive

Dear colleague, could you share the recorded outcome for "CC1=CC(=Nc2ccc(N(CCCl)CCCl)cc2)C=C(C)C1=O" when you have a moment?
inactive

Recorded test call requested for "COC(=O)[C@]12CC[C@@H](C)[C@H](C)[C@@H]1C1=CC[C@@H]3[C@@]4(C)C/C(=N\O)[C@H](O)[C@@]5(C)COC(=C45)C[C@@]3(C)[C@]1(C)CC2"
inactive

Entry "CCC[CH2][Sn]([CH2]CCC)([O]C(=O)c1cccnc1SC)[O]C(=O)c1cccnc1SC" : call = ?
inactive

# lookup: test call for "O=c1[nH]ncc(Br)c1Br"
inactive

Name the outcome recorded for COc1cc(C2NC(=O)c3ccccc3N2)ccc1OCCCCCOc1c(OC)cc(C2=NOC(c3cc(OC)c(OC)c(OC)c3)C2)cc1OC (centres undefined) in the assay.
inactive

# lookup: test call for "Nc1nc(Cl)c2ncn(Cc3ccc(C45CC6CC(CC(C6)C4)C5)c(O)c3)c2n1"
inactive

Please share the test call associated with CCOC(=O)[C]1([Bi]([CH3])[CH3])N=NC(C(=O)OC)=C1C(=O)OC (centres undefined) .
inactive

Call for entry "NC(=O)c1ccc(I)c(N)c1" :
inactive

Returns: the outcome recorded for "CC[CH2][Sn]([CH2]CC)([O]C(=O)c1cccnc1SC)[O][Sn]([CH2]CC)([CH2]CC)[O]C(=O)c1cccnc1SC" in this assay.
active

----------
System: T-47D breast
Assay: NCI tumour cell line growth inhibition, 48 h
assayMetric: GI50

Query COc1cc(C2=NOC(c3cc(OC)c(OC)c(OC)c3)C2)ccc1OCCCCOc1cc2c(cc1OC)C(=O)N1CCC[C@H]1C=N2 (stereo partly specified) yields GI50 of 481 nM

Lookup result for "CCOc1cc2c(Cl)ncnc2c(OCC)c1OCC" ; measured GI50: 6110 nM

Data point: "Oc1ccc(CN2CCC(N3CCCCC3)CC2)c2cccnc12" ; GI50 = 23600 nM

Short answer for "COc1ccc(/C(COc2c(-c3ccccc3)oc3ccccc3c2=O)=N\O)cc1" : GI50 was 13500 nM

Value of measured GI50 for the entry COc1cc(C2NC(=O)c3ccccc3N2)ccc1OCCCCCOc1c(OC)cc(C2=NOC(c3cc(OC)c(OC)c(OC)c3)C2)cc1OC (stereo unspecified) : 239 nM

The reported value for "CC[CH2][Sn]([CH2]CC)([O]C(=O)c1cccnc1SC)[O][Sn]([CH2]CC)([CH2]CC)[O]C(=O)c1cccnc1SC" in terms of GI50 is 287 nM

The molecule identified as "CC/C(=C(/c1ccc(O)cc1)c1ccc(OCCNC)cc1)c1ccccc1" registered its GI50 at 1340 nM

Measured GI50 of N#Cc1ccc(O)c(C2=NCC(c3cccc(Oc4ccccc4)c3)O2)c1 (stereo unspecified) : 817 nM

Record summary for "N#Cc1ccc(NC(=O)Nc2ccc(Oc3ccc(NC(=O)Nc4ccc(C#N)cc4)cc3)cc2)cc1" : reported GI50 = 622 nM

Data point: "O=C(N/N=C/c1ccccc1O)c1ccccc1Nc1ccnc(C(F)(F)F)c1" ; GI50 = 1070 nM

# GI50 of "Cc1ccc(NC(=O)c2cccc(N(C)C)c2)cc1NC(=O)c1ccc(O)cc1" = > 48700 nM
